assay_target: GST-Nv-NF-kB (Ser allele) (Nematostella vectensis, UniProt A7UNT2 2-411)
Sequence: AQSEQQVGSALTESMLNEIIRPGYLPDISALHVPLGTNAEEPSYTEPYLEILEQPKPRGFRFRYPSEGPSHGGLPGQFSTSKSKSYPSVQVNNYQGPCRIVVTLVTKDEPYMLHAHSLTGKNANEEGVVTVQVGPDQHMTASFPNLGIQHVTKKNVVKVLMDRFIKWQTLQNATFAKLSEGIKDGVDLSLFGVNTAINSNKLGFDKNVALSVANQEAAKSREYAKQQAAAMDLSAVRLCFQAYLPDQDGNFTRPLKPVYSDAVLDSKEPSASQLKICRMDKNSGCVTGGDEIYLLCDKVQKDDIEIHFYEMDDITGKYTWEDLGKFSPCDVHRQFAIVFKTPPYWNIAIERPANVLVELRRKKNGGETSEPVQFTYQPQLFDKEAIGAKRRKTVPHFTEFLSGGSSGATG
method_notes: protein-binding microarray (PBM); PBM: ~300 nM protein, 6 mM HEPES pH 7.8, 80 mM KCl, 0.5 mM EDTA, 0.5 mM EGTA, 6% glycerol, 35 ng/ul poly-dIdC, 1% milk, 1 h, room temperature; high values mean tight binding
recorded_conditions: dsDNA, one strand shown
Checkbox rule: binding signal lower than 2 z-score = satisfied; binding signal not lower than 2 z-score = not satisfied.

As a guide, the following entries are already answered.
| residue_sequence | category_label |
| --- | --- |
| CCGATTAACATCAGAAAATCCCATGATGTTAATCGGGTCTTGATTCGCTTGACGCTGCTG | not satisfied |
| CCGATTAACATCATAAAAAAAAATGATGTTAATCGGGTCTTGATTCGCTTGACGCTGCTG | satisfied |
| CCGATTAACATCAGAAATGGGAATGATGTTAATCGGGTCTTGATTCGCTTGACGCTGCTG | satisfied |

Now let's try a different one.
Q. Threshold test, binding signal < 2 z-score: CCGATTAACATCAAGCGTTTCCCTGATGTTAATCGGGTCTTGATTCGCTTGACGCTGCTG
A. not satisfied

###

Each item that follows carries a reported binding signal.
assay_target: GST-Hu-p50 (Homo sapiens, UniProt P19838 7-356)
Sequence (P19838 7-356): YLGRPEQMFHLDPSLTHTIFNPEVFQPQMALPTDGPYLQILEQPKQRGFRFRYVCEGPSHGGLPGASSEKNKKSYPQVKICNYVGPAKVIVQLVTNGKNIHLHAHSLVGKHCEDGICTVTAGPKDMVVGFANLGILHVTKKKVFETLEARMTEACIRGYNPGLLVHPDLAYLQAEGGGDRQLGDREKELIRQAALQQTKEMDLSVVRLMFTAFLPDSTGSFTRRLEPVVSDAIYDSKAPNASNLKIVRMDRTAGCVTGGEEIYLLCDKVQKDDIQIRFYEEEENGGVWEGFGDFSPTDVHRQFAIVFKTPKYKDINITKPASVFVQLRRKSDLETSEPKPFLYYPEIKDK
method_notes: protein-binding microarray (PBM); PBM: ~300 nM protein, 6 mM HEPES pH 7.8, 80 mM KCl, 0.5 mM EDTA, 0.5 mM EGTA, 6% glycerol, 35 ng/ul poly-dIdC, 1% milk, 1 h, room temperature; Ap Aiptasia and Nv Nematostella (sea anemones) / Co Capsaspora / Aq Amphimedon (sponge) / Dm Drosophila / Hu human; RHD is the Rel homology domain; high values mean tight binding
recorded_conditions: dsDNA, one strand shown
Form entry: enter the amount, then its unit.

| residue_sequence | measurement_name | meas_value |
| --- | --- | --- |
| CCGATTAACATCAAAAGAATCCCTGATGTTAATCGGGTCTTGATTCGCTTGACGCTGCTG | binding signal | 3.14 z-score |
| CCGATTAACATCACCGAACTAACTGATGTTAATCGGGTCTTGATTCGCTTGACGCTGCTG | binding signal | 1.23 z-score |
| CCGATTAACATCAGGGCAAACCCTGATGTTAATCGGGTCTTGATTCGCTTGACGCTGCTG | binding signal | 1.57 z-score |
| CCGATTAACATCAGGCTTTCCCATGATGTTAATCGGGTCTTGATTCGCTTGACGCTGCTG | binding signal | 1.36 z-score |
| CCGATTAACATCACGGTTTTTCCTGATGTTAATCGGGTCTTGATTCGCTTGACGCTGCTG | binding signal | 1.62 z-score |
| CCGATTAACATCACCAGTTTCCCTGATGTTAATCGGGTCTTGATTCGCTTGACGCTGCTG | binding signal | 2.39 z-score |
| CCGATTAACATCACGGAGTCCCCTGATGTTAATCGGGTCTTGATTCGCTTGACGCTGCTG | binding signal | 5.13 z-score |
| CCGATTAACATCAGCTTGGGAAATGATGTTAATCGGGTCTTGATTCGCTTGACGCTGCTG | binding signal | 1.1 z-score |

Query sequence follows.
Q. Given the sequence CCGATTAACATCAATTCCCAAGGTGATGTTAATCGGGTCTTGATTCGCTTGACGCTGCTG , write its reported binding signal.
A. 2.13 z-score
